Molecular target: cathepsin S (Homo sapiens)
Sequence (P25774 115-331, species assumed): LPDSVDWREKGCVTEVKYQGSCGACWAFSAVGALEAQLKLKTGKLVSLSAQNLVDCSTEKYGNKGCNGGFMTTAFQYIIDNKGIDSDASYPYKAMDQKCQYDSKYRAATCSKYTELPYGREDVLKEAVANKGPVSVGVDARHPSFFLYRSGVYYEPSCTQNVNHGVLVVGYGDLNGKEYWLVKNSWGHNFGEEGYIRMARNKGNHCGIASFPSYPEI
Assay: Inhibitory activity assay against cathepsin S (enzyme assay)
Format: biochemical
Details: Z-Phe-Arg-AMC 70 μM, enzyme 3 nM, pH 6.5, 45 minutes
quantity: IC50

N#Cc1nccc(C2(NC(=O)Nc3ccc(Oc4ccccc4)cc3)CCCC2)n1 = > 10000 nM

Consider the molecule `N#Cc1nccc(C2(NC(=O)Nc3ccc(-c4ccc(C(=O)O)cc4)c(C(F)(F)F)c3)CCCCC2)n1` and give its measured IC50. 3370 nM

Please report the recorded IC50 for `N#Cc1nccc(C2(NC(=O)OCc3ccccc3Br)CCCCC2)n1` . 5850 nM

Endpoint output: IC50 of `N#Cc1nccc(C2(NC(=O)Nc3ccc(-c4ccc(C(=O)NCCn5nccn5)cc4)c(F)c3)CCCCC2)n1` . Value? 4330 nM

Endpoint output: IC50 of `N#Cc1nccc(C2(NC(=O)Nc3cc(F)ccc3C(F)(F)F)CCCC2)n1` . Value? > 10000 nM

Looking for the measured IC50 of `N#Cc1nccc(C2(NC(=O)Nc3ccc(-c4ccc(C(F)(F)F)nc4)cc3)CCCCC2)n1` , can you help? 5750 nM

Item under review: `N#Cc1nccc(C2(NC(=O)Nc3ccc(-c4ccc(C5CCN(C6CC6)CC5)cc4)c(F)c3)CCCCC2)n1` . Reported IC50? > 10000 nM

###

// reported IC50 per item
Target: UniProt P25774
Test: Inhibitory activity assay against cathepsin S (enzyme assay)
Format: biochemical
Settings: Z-Phe-Arg-AMC 70 μM, enzyme 3 nM, pH 6.5, 45 minutes

Would you please look over these solved cases?
N#Cc1nccc(C2(NC(=O)Nc3cc(C(F)(F)F)cc(C(F)(F)F)c3)CCCCC2)n1 = > 10000 nM
N#Cc1nccc(C2(NC(=O)OCc3ccc(C(F)(F)F)cc3)CCCCC2)n1 = > 10000 nM
N#Cc1nccc(C2(NC(=O)OCc3ccc(-c4ccc(F)nc4)cc3)CCCC2)n1 = > 10000 nM

Next:
Which IC50 is listed for `N#Cc1nccc(C2(NC(=O)Nc3cccc(Br)c3)CCCCC2)n1` ? 7620 nM

###

Molecular target: cathepsin K (Homo sapiens, UniProt P43235)
Sequence (P43235 115-329, species assumed): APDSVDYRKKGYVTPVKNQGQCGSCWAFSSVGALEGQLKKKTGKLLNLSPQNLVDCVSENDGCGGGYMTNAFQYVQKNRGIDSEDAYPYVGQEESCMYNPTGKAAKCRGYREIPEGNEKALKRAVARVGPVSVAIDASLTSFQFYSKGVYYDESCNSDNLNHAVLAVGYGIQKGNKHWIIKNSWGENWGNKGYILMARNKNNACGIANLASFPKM
Test: Inhibitory activity assay against cathepsin K (enzyme assay)
Format: biochemical
Details: Z-Phe-Arg-AMC 10 μM, enzyme 1 nM, pH 5.5, 30 minutes
Description: In order to measure the enzyme activity of cathepsin K, a buffer solution (pH 5.5) consisting of 50 mM 2-(N-morpholino)ethanesulfonic acid (MES), 2 mM dithiothreitol (DTT), 2.5 mM ethylenediaminetetraacetic acid (EDTA), 0.01% Triton X-100, and 10% dimethyl sulfoxide (DMSO) was prepared. The substrate, the test material, and the enzyme were mixed in the buffer solution in a predetermined concentration. […] IC50 values were determined using 4-parameter logistic curve fit program of GraphPad Prism.
// returns not fulfilled unless IC50 is strictly below 20 nM, in which case fulfilled

Consider the following illustrative entries.
Cc1cccc(COC(=O)NC2(c3ccnc(C#N)n3)CCCCC2)c1 [Example 13] = not fulfilled
CC(C)N1CCN(c2ccc(-c3ccc(NC(=O)NC4(c5ccnc(C#N)n5)CCCCC4)cc3)cc2)CC1 [Example 154] = fulfilled
N#Cc1nccc(C2(NC(=O)NCc3cccc(C(F)(F)F)c3)CCCC2)n1 [Example 57] = not fulfilled
N#Cc1nccc(C2(NC(=O)Nc3ccc(I)cc3)CCCCC2)n1 [Example 132] = fulfilled
N#Cc1nccc(C2(NC(=O)Nc3ccc(-c4ccccc4C(F)(F)F)cc3)CCCCC2)n1 [Example 172] = not fulfilled
COc1ccc(CNC(=O)NC2(c3ccnc(C#N)n3)CCCC2)cc1OC [Example 49] = not fulfilled
N#Cc1nccc(C2(NC(=O)OCc3ccccc3)CCCCC2)n1 [Example 10] = fulfilled
N#Cc1nccc(C2(NC(=O)Nc3ccc(-c4ccc(N5CCOCC5)cc4)cc3)CCCCC2)n1 [Example 117] = fulfilled

Turning now to a further record.
# strict comparison: is reported IC50 < 20 nM? input = N#Cc1nccc(C2(NC(=O)Nc3cc(C(F)(F)F)ccc3C(F)(F)F)CCCCC2)n1 [Example 103] fulfilled

Where do these numbers come from? They come from patent US11299478B2.
